# Subject Of Test: ovine COX-1 (Ovis aries)
# Construct: purchased Cayman Chemical 560101
# Sequence (P05979 25-600): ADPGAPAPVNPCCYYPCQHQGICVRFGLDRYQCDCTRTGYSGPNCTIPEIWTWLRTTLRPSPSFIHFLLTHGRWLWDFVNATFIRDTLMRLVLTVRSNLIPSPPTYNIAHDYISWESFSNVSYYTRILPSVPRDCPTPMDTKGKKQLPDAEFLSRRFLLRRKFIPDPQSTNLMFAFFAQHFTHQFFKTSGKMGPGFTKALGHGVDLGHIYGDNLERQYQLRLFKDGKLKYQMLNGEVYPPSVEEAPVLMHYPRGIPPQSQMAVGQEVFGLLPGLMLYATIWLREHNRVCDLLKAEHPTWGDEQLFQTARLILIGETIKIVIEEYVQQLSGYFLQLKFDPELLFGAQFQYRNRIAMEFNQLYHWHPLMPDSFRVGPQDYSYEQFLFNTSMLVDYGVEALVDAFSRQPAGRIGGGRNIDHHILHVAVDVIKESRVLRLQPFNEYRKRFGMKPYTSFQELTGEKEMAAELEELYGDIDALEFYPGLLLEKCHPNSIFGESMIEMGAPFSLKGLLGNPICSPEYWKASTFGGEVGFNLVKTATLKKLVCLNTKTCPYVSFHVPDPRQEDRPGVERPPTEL
# Test Method Notes: In vitro COX-1 inhibition, enzyme immuno assay (EIA) kit
# Assay type: biochemical
# Cond: ovine COX-1, EIA, duplicate determinations
Reported Property: IC50 (µM)
Form entry: value (µM) — number only.

Item: CCCCC/C=C/C/C=C/CCCCCCCC(=O)N1CC(O)CC1C(=O)O (stereo not shown) | System: ovine COX-1 (Ovis aries) | IC50: 52.7

Lab note: compound CC/C=C\C/C=C/C/C=C/C/C=C/C/C=C/CCCC(=O)N1CC(O)CC1C(=O)O (stereo not shown) tested on ovine COX-1 (Ovis aries); recorded IC50 was 39.5

The reported ovine COX-1 (Ovis aries) IC50 of CCCCCCCC/C=C/CCCCCCCC(=O)N1CC(O)CC1C(=O)O (stereo not shown) is 72.5

Test item CC/C=C\C/C=C/C/C=C/C/C=C/C/C=C/C/C=C/CCC(=O)N1CC(O)CC1C(=O)O (stereo not shown) ; ovine COX-1 (Ovis aries); reported IC50 was 42.8

----------
# Subject Of Test: ovine COX-2 (Ovis aries, UniProt P79208)
# Sequence (P79208 17-603): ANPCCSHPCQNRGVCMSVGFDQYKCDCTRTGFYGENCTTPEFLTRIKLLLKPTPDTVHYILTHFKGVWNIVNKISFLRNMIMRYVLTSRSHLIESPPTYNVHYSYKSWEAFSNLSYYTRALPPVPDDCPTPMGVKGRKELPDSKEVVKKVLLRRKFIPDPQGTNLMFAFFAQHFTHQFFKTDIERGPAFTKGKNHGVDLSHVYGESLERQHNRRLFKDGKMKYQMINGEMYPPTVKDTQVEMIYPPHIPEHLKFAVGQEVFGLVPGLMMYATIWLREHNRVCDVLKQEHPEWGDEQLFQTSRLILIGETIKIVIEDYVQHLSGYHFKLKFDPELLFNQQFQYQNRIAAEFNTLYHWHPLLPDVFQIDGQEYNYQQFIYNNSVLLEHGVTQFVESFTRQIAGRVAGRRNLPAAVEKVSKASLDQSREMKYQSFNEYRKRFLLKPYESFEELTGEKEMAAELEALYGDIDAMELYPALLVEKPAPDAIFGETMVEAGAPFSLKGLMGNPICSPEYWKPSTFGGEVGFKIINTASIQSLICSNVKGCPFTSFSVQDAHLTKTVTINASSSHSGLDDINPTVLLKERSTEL
Reported Property: IC50 (nM)
Could you give me the number in nM? Just the number is fine.

Note to self: IC50 recorded for CC/C=C\C/C=C/C/C=C/C/C=C/C/C=C/CCCC(=O)N1CC(O)CC1C(=O)O (stereo not shown) was 85

Reported IC50 of CCCCCCCC/C=C/CCCCCCCC(=O)N1CC(O)CC1C(=O)O (stereo not shown) : 1300

Field IC50 (entry CCCCC/C=C/C/C=C/CCCCCCCC(=O)N1CC(O)CC1C(=O)O (stereo not shown) ) reads 510

Per the record, CC/C=C\C/C=C/C/C=C/C/C=C/C/C=C/C/C=C/CCC(=O)N1CC(O)CC1C(=O)O (stereo not shown) has IC50 of 81

----------
# Subject Of Test: ovine COX-2 (Ovis aries)
# Construct: purchased Cayman Chemical 560101
# Test Method Notes: In vitro COX-2 inhibition, enzyme immuno assay (EIA) kit
# Format: biochemical
# Cond: ratio of COX-1 IC50 to COX-2 IC50
Record form. Attribute: Ration (COX ½). Fill in for each entry.
Please give only the number in your answer, with no unit.

The compound listed as CCCCCCCC/C=C/CCCCCCCC(=O)N1CC(O)CC1C(=O)O (stereo not shown) shows Ration (COX ½) equal to 55.7

Recorded Ration (COX ½) (compound CC/C=C\C/C=C/C/C=C/C/C=C/C/C=C/CCCC(=O)N1CC(O)CC1C(=O)O (stereo not shown) ): 464.11

Ration (COX ½) recorded for this compound, CCCCC/C=C/C/C=C/CCCCCCCC(=O)N1CC(O)CC1C(=O)O (stereo not shown) , is 103.3

Given item CC/C=C\C/C=C/C/C=C/C/C=C/C/C=C/C/C=C/CCC(=O)N1CC(O)CC1C(=O)O (stereo not shown) , the value recorded as its Ration (COX ½) is 528.68
